Assay: S. cerevisiae growth inhibition in permissive medium (OD615), pilot counter-assay for S. cerevisiae lifespan shortening project, permissive growth control (AID 705)
Details: OD615, 24 h, at 10 µM
Activity calls are given as the source filed them.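 Rule for the calls: active = growth inhibition above 25% in both replicates, a cutoff set 3 SD above the mean; inconclusive = above 25% in only one replicate; inactive = the rest.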
Lab note: assign the record to one of active, inactive

Past entries and their recorded results:
CCOc1ccc(N=CC2=C(O)CC(C)(C)CC2=O)cc1; inactive
Cn1c(=O)c2cc(S(=O)(=O)NC(C(=O)Nc3cccnc3)c3ccccc3)ccc2n(C)c1=O (stereo not drawn); inactive
Clc1cccc(Nc2ncnc3c2cnn3-c2ccccc2)c1; inactive
Clc1c(CSc2nc3ccccc3o2)nc2sccn12; inactive

Call for entry CC1CN(Cc2nc3c(c(=O)n(C)c(=O)n3C)n2Cc2cccc(Cl)c2)CC(C)O1 (stereo not drawn) : inactive

---

Assay: growth suppression of yeast trafficking mutant, preliminary HTS, modulators of trafficking downstream of Golgi apparatus project, 1536-format plate, OD 615 nm (AID 637)
Settings: yeast transport mutant growth, absorbance 615 nm, 18 h; stronger effect = higher value
This section presents molecules with their documented inhibition values.
Answer format: numeric, % implied, no suffix.

Some molecules with recorded inhibition:
COC(=O)CCCCCc1ccc(C(C)=O)s1; -1.61
CC(C(=O)Oc1ccc2c(c1)OCO2)N1C(=O)c2ccccc2C1=O (stereo unspecified); 1.27
CCn1cc(C(=O)NCCCOC)c(=O)c2cc(S(=O)(=O)N(C)C)ccc21; -5.33
CCOC(=O)C(CC)(CCC(=O)O)c1csc(N)n1 (stereo unspecified); -2.74

# return recorded inhibition for input `Cc1cc(C)n2c(SCC(=O)Nc3cc(C)on3)nnc2n1` 5.71

# return recorded inhibition for input CCCSC1=C(C#N)C(c2cc(OC)ccc2OC)CC(=O)N1 (stereo unspecified) -0.33

# return recorded inhibition for input CCCOc1ccc(N2CC(C(=O)Nc3ccc4c(c3)OCO4)CC2=O)cc1 (stereo unspecified) -1.67

---

This section presents molecules with their documented viability values.
Test: H69AR cell proliferation blockers – human, duplicate replicates, primary screen (AID 580);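 note: 100% = mean luminescence of untreated wells and 0% = no signal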
Conditions: H69AR lung tumor cells viability, ATP luminescence, 72 h; at 10 µM; stronger effect = lower value
Answer format: numeric, % implied, no suffix.

Some molecules with recorded viability:
O=C(c1ccc(CSCc2ccccc2F)o1)N1CCN(c2ccc(N3CCOCC3)nn2)CC1; 79.7
COc1cccc(-c2nc3n(n2)C(c2ccccc2Cl)C(C(N)=O)=C(C)N3)c1 (stereo not given); 90.4
COc1ccc(OCc2nc(C#N)c(N3CCN(c4ccc(OC)cc4)CC3)o2)cc1; 94

# return recorded viability for input `c1ccc(C2(Cn3ccc4ccccc43)OCCO2)cc1` 94.9

# return recorded viability for input CCOC(=O)C1CCN(c2c(NC3CCCc4ccccc43)c(=O)c2=O)CC1 (stereo not given) 87.7

---

Experiment: RAM pathway blockade in budding yeast – dse1pr::URA3 reporter, 5-FOA selection, pilot screen (AID 869);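 note: 0% = DMSO wells with no growth and 100% = 10 µM 1-NA-PP1 with full growth; RAM network block rescues cells from 5-FOA so hits raise OD615 growth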
Details: S. cerevisiae dse1pr::URA3 5-FOA growth, OD615, 2 d; at 10 µM; stronger effect = higher value; strain carries analog-sensitive mutant Cbk1 kinase
VALUE_KIND: inhibition (%)
Answer format: numeric, % implied, no suffix.

# return recorded inhibition for input `CCOC(=O)N1CCN(c2cc(=O)n(-c3cccc(Br)c3)c(=O)[nH]2)CC1` 3.14

# return recorded inhibition for input CC1CN(c2ccc(Oc3ccccc3)cc2)c2nc3c(c(=O)n(CC(N)=O)c(=O)n3C)n2C1 (stereo not given) 2.65

# return recorded inhibition for input `Cc1cc(C)nc(NC(=O)c2cnc3sccn3c2=O)n1` 0.9

# return recorded inhibition for input `CCOc1ccc(-c2nnc(SCC(=O)N3CCN(c4ccccc4)CC3)o2)cc1` 2.71

# return recorded inhibition for input `O=C(CSc1nc2c(cnn2-c2ccc(F)cc2)c(=O)[nH]1)N1CCCCCC1` 1.53
